# System: MS2 coat protein
# test description: apparent KD of MS2 coat protein; designed switch direction (-1 OFF switch, 1 ON switch): -1; higher = weaker reporter binding
# condition details: Eterna round: R95; input ligand: microRNA oligo, concentration not stated
Lab note: compare apparent KD of MS2 coat protein against 20 nM. Equal or greater, write 1. Smaller, write 0.

sequence_data="CAGUACUGAGGAUAUACAUGAGGAUCACCCAUGUGUCUAAAGUAGGAUACUACUAUUAGUAGAAGGCAGUACUG [Fiskers Ex 3 828 mod 20] (puzzle: Exclusion 3)" class=0
sequence_data="UUUAAUUUUUUUUUUUUACAAGCUUUUUGCUCGUCUUAUACAUGAGGAUCACCCAUGUGAGUGGAGGGUAAAUUAUC [JMF 88] (puzzle: Sensor v3, turn-off variant 2)" class=1
sequence_data="AAGAGGUCAGGAUAUACGGAGAGAGGGAGUUGGUUAGGGUAACAUGAGGAUCACCCAUGUAGAAGGGACUAAGA [JR_Exclu2_Sub079] (puzzle: Exclusion 2)" class=1
sequence_data="AAAAUGUCAGGAUAUACGAAACAAAACAAAACAAAACAAAAGUAGAAGGGACAUGAGGAUCACCCAUGUAAGAA [Exclusion 4 #2] (puzzle: Exclusion 4)" class=1
sequence_data="AGUACUAACACGCUAGUGUUAGUACAAUAAGCUUGUGAAACAUGAGGAUCACCCAUGUCCUCAUAAGCUCGUCUUAU [salish99_TOv2_r3_058] (puzzle: Sensor v3, turn-off variant 2)" class=1
